So I've got a bunch of variants here, and I need their sfGFP reporter fluorescence values.
B1: library; numbered along this chain (parent)
chain: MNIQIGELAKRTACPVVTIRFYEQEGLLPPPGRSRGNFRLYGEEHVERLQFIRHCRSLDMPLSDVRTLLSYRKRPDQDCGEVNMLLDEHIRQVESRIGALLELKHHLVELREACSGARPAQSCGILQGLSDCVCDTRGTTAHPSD

variants of: B1; assay: sfGFP reporter fluorescence (15 h) (µM FITC); higher = stronger transcriptional activation; settings: library round: Round 1; ligand: 1 µM Pb

Prompt: Which measured sfGFP reporter fluorescence value corresponds to MNIQIGELAKRTACPVVTIRFYEQEGLLPPPGRSRGNFRLYGEEHVERLQFIRHCRSLDMPLSDVRTLLSYRKRPDQDCGEVTMLLDEHIRQVESRGGALLELKHHLVELREACSGARPAQSCGILQGLSDCVCDTRGTTAHPSD ?
Completion: 0.0646

Prompt: Note, next up: MNIQIGELAKRTACPVVTIRFYEQEGLLPPPGRSRGNFRLYGMEHVERLQFIRHCRSLDMPLSDVRTLLSYRKRPDQDCGEVNMLLDEHIRQVESRIGALLELKHHLVELREACSGARPAQSCGILQILSDCVCDTRGTTAHPSD
Completion: 0.206

Prompt: Please do the same for MNIQIGELAKRTACPVVTIRFYEQEGLLPPPGRSRGNFRLYGEEHVERLQFIRHCRSLDFNLSKVRTLLSYRKRPDQDCGEVNMLLDEHIRQVESRIGALLELKHHLVELREACSGARPAQSCGILQGLSDCVCDTRGTTAHPSD as well.
Completion: 1.61

Prompt: Param item: MNIQIGELAKRTACPVVTIRFYEQEGLLPPPGRSRGNFRLYGEEHVERLQFIRHCRSLDMPLSGVRTLLSYRKRPDQDCGEVSMLLDEHIRQVESRIGALLELKHHLVELREACSGARPAQSCGILQGLSDCVCATRGTTAHPSD
Completion: 0.0915

Prompt: What about this variant? MNIQIGELAKRTACPVVTIRFYEQEGLLPPPGRSRGNFRLYGEEHVERLQFIRHCRSLDMPLSSVRTLLSYRKRPDQDCGEVNMLLDEHIRQVESRIGALLELKHHLVHLREACSGARPAQSCGILQGLSDCVCDTRGTTAHPSD
Completion: 0.193

Prompt: Same question for MNIQIGELAKRTACPVVTIRFYEQEGLLPPPGRSRGNFRLYGEEHVERLQFIRHCRSLDMPLSTVRTLLSYRKRPDQDCGEVNMLLDEHIRQVESRIGALLELKHHLVELREACSGARPAQSCGILQGLSCCVCDTRGTTAHPSD please.
Completion: 0.359

Prompt: Cool, now MNIQIGELAKRTACPVVTIRFYEQEGLLPPPGRSRGNFRLYGEEHVERLQFIRHCRSLDMPLSDVRTLLSYRKRPDQDCGEVNMLLDEHIRQVESRIGALLELKHHLVELREACSGARPAQSCGILQGLSACVCATRGTTAHASD
Completion: 0.0917

Prompt: Then what about the variant MNIQIGELAKRTACPVVTIRFYEQEGLLPPPGRSRGNFRLYGEEHVERLQFIRHCRSLDMPLSDVRTLLSYRKRPDQDCGEVYMLLDEHIRQVESRIGALLELKHHLVELDEACSGARPAQSCGILQGLSDCVCDTRGTTAHPSD ?
Completion: 0.0568

Prompt: Moving on to MNIQIGELAKRTACPVVTIRFYEQEGLLPPPGRSRGNFRLYGEEHVERLQFIRHCRSLDMPLSDVRTLLSYRKRPDQDCGEVNMLLDEHIRQVESRIGALLELKHHLVHLREACSGARPAQSCGILQGLSDCVCATRGTTAHPSD
Completion: 0.0832

Prompt: MNIQIGELAKRTACPVVTIRFYEQEGLLPPPGRSRGNFRLYGEEHVERLQFIRHCRSLDMPLSDVRTLLSYRKRPDQDCGEVTMLLDEHIRQVRSRIGALLELKHHLVELREACSGARPAQSCGILQGLSDCVCDTRGTTAHPSD , same question.
Completion: 0.0792

Prompt: Moving on to MNIQIGELAKRTACPVVTIRFYEQEGLLPPPGRSRGNFRLYGEEHVERLQFIRHCRSLDMPLSDVRTLLSYRKRPDQDCGEVNMLLDEHIRQVYSRIGALLELKHHLVELREACSGARPAQSCGILQGLSDCVCDTRGTTAHCSD
Completion: 0.0621

Prompt: Same lookup for MNIQIGELAKRTACPVVTIRFYEQEGLLPPPGRSRGNFRLYGEEHVERLQFIRHCRSLDMPLSKVRTLLSYRKRPDQDCGEVNMLLDEHIRQVESRIGALLELKHHLEELREACSGARPAQSCGILQGLSDCVCDTRGTTAHPSD , please.
Completion: 0.165

Prompt: Follow-up entry: MNIQIGELAKRTACPVVTIRFYEQEGLLPPPGRSRGNFRLYGEEHVERLQFIRHCRSLDMPLSDVRTLLSYRKRPDQDCGEVNMLLDEHIRQVESRIGALLELKHHLVELREACSGARPAQSCGILQGLSDCVCASRGTTAHPSD
Completion: 0.0751

Prompt: Queued: MNIQIGELAKRTACPVVTIRFYEQEGLLPPPGRSRGNFRLYGEEHVERLQFIRHCRSLDMPLSDVRTLLSYRKRPDQDCGEVTMLLDEHSRQVESRIGALLELKHHLVELREACSGARPAQSCGILQGLSDCVCDTRGTTAHPSD
Completion: 0.0715

Prompt: Item: MNIQIGELAKRTACPVVTIRFYEQEGLLPPPGRSRGNFRLYGEEHVERLQFIRHCRSLDMPLSDVRTLLSYRKRPDQDCGEVNMLLDEHIRQVESRIGALLELKHHLVELREACSGARPAQSCGILQGLSDCVCATRGTTAHYSD
Completion: 0.0797

Prompt: And MNIQIGELAKRTACPVVTIRFYEQEGLLPPPGRSRGNFRLYGEEHVERLQFIRHCRSLDMPLSDVRTLLSYRKRPDQDCGEVNMLLDEHIRQVESRIGALLELKHHLVEIREACSGARPAQSCGILQGLSDCVCATRGTTAHPSD ?
Completion: 0.0588

Prompt: MNIQIGELAKRTACPVVTIRFYEQEGLLPPPGRSRGNFRLYGEEHVERLQFIRHCRSLDMPLSDVRTLLSYRKRPDQDCGEVTMLLDEHIRQVESRIGALLELKHHLLELREACSGARPAQSCGILQGLSCCVCDTRGTTAHPSD , same question.
Completion: 0.0745

Prompt: Next entry: MNIQIGELAKRTACPVVTIRFYEQEGLLPPPGRSRGNFRLYGEEHVERLQFIRHCRSLDMPLSDVRTLLSYRKRPDQDCGEVSMLLDEHIRQVESRIGALLELVHHLVELREACSGARPAQSCGILQGLSDCVCDTRGTTAHPSD
Completion: 0.121

Prompt: Lookup MNIQIGELAKRTACPVVTIRFYEQEGLLPPPGRSRGNFRLYGEEHVERLQFIRHCRSLDMPLSDVRTLLSYRKRPDQDCGEVNQLLDEHIRQVESRIGALLELKHHLVELLEACSGARPAQSCGILQGLSDCVCDTRGTTAHPSD
Completion: 0.0651

Prompt: Another variant to check: MNIQIGELAKRTACPVVTIRFYEQEGLLPPPGRSRGNFRLYGEEHVERLQFIRHCRSLDMPLSDVRTLLSYRKRPDQDCGEVNMLLDEHIRQVESRIGALLELKHHLVELREACSGARPAQSCGILQGLSCCVCATRGTTAHPSD
Completion: 0.0742

Prompt: What would you report for MNIQIGELAKRTACPVVTIRFYEQEGLLPPPGRSRGNFRLYGEEHVERLQFIRHCRSLDMPLSDVRTLLSYRKRPDQDCGEVNMLLDEHIRQVESRIGALLELKHHLVELREACSGARPAQSCGIIQGLSCCVCDTRGTTAHPSD ?
Completion: 0.0635

Prompt: Now the variant MNIQIGELAKRTACPVVTIRFYEQEGLLPPPGRSRGNFRLYGEEHVERLQFIRHCRSLDMPLSDVRTLLSYRKRPDQDCGEVTMLLDEHIRQVESRIGALLELKHHLVELRLACSGARPAQSCGILQGLSDCVCDTRGTTAHPSD
Completion: 0.0766

Prompt: MNIQIGELAKRTACPVVTIRFYEQEGLLPPPGRSRGNFRLYGEEHVERLQFIRHCRSLDMPLSDVRTLLSYRKRPDQDCGEVSMLLDEHIRQVESRIGALLELKHHLVELREACSGARPAQSCGILQGLSDCVCPTRGTTAHPSD ?
Completion: 0.0811

Prompt: Would you mind doing MNIQIGELAKRTACPVVTIRFYEQEGLLPPPGRSRGNFRLYGEEHVERLQFIRHCRSLDLLLSDVRTLLSYRKRPDQDCGEVNMLLDEHIRQVESRIGALLELKHHLVELREACSGARPAQSCGILQGLSDCVCDTRGTTAHPSD as well?
Completion: 0.081

Prompt: Please give the result for MNIQIGELAKRTACPVVTIRFYEQEGLLPPPGRSRGNFRLYGEEHVERLQFIRHCRSLDMPLSKVRTLLSYRKRPDQDCGEVNMLLDEHIRQVESRIGALLELKHHLVELREACSGARPAQSCGILQGLSCCVCDTRGTTAHPSD too.
Completion: 0.282

Prompt: What do you have for MNIQIGELAKRTACPVVTIRFYEQEGLLPPPGRSRGNFRLYGEEHVERLQFIRHCRSLDMPLSDVRTLLSYRKRPDQDCGEVNMLLDEHIRQVESRIGALLELKHHLVELREACSGARPAQSCGILQGLSYCVCATRGTTAHPSD ?
Completion: 0.1

Prompt: Also need MNIQIGELAKRTACPVVTIRFYEQEGLLPPPGRSRGNFRLYGEEHVERLQFIRHCRSLDMPLSDVRTLLSYRKRPDQDCGEVSMLLDEHLRQVESRIGALLELKHHLVELLEACSGARPAQSCGILQGLSDCVCDTRGTTAHPSD , thanks.
Completion: 0.079

Prompt: Can you check MNIQIGELAKRTACPVVTIRFYEQEGLLPPPGRSRGNFRLYGEEHVERLQFIRHCRSLDMPLSDVRTLLSYRKRPDQDCGEVNMLLDEHIRQVESQIGALLELKHHLVELREACSGARPAQSCGILQGLSDCVCDTRGTTAHPSD next?
Completion: 0.0982

Prompt: Likewise for MNIQIGELAKRTACPVVTIRFYEQEGLLPPPGRSRGNFRLYGEEHVERLQFIRHCRSLDMPLSDVRTLLSYRKRPDQDCGEVNMLLDEHIRQVESRIGALLELKHHLVELREACSGARPAQSCGILQGLSTCPCDTRGTTAHPSD ?
Completion: 0.0767

Prompt: Now consider MNIQIGELAKRTACPVVTIRFYEQEGLLPPPGRSRGNFRLYGEEHVERLQFIRHCRSLDMPLSDVRTLLSYRKRPDQDCGEVNMLLDEHIRQVESRIGALLELKHHLVELREACSGARPAQSCGILQGLSACVVDTRGTTAHPSD .
Completion: 0.12

Prompt: Param item: MNIQIGELAKRTACPVVTIRFYEQEGLLPPPGRSRGNFRLYGEEHVERLQFIRHCRSLDMPLSAVRTLLSYRKRPDQDCGEVNMLLDEHIRQVRSRIGALLELKHHLVELREACSGARPAQSCGILQGLSDCVCDTRGTTAHPSD
Completion: 0.179

Prompt: Now the variant MNIQIGELAKRTACPVVTIRFYEQEGLLPPPGRSRGNFRLYGEEHVERLQFIRHCRSLDMNLSDVRTLLSYRKRPDQDCGEVNMLLDEHIRQVESRIGALLELKHHLVELREACSGARPAQSCGILQGLSCCVCDTRGTTAHPSD
Completion: 0.428

Prompt: Okay, and MNIQIGELAKRTACPVVTIRFYEQEGLLPPPGRSRGNFRLYGEEHVERLQFIRHCRSLDMPLSDVRTLLSYRKRPDQDCGEVNMLLDEHIRQVESRIGALLELKHHCVHLREACSGARPAQSCGILQGLSDCVCDTRGTTAHPSD ?
Completion: 0.673

Prompt: Likewise for MNIQIGELAKRTACPVVTIRFYEQEGLLPPPGRSRGNFRLYGEEHVERLQFIRHCRSLDMPLSDVRTLLSYRKRPDQDCGEVNMLLDEHIRQVESRIGALLELKHHCVELREACSGARPAQSCGILQILSDCVCSTRGTTAHPSD ?
Completion: 3.9

Prompt: Subsequent entry: MNIQIGELAKRTACPVVTIRFYEQEGLLPPPGRSRGNFRLYGEEHVERLQFIRHCRSLDMPLSDVRTLLSYRKRPDQDCGEVTMLLDEHIRQVESRIGALLELKHHFVELREACSGARPAQSCGILQGLSDCVCDTRGTTAHPSD
Completion: 0.059

Prompt: Also MNIQIGELAKRTACPVVTIRFYEQEGLLPPPGRSRGNFRLYGEEHVERLQFIRHCRSLDMPLSDVRTLLSYRKRPDQDCGEVTMLLDEQIRQVESRIGALLELKHHLVELREACSGARPAQSCGILQGLSDCVCDTRGTTAHPSD , if possible.
Completion: 0.0955

Prompt: Further, for MNIQIGELAKRTACPVVTIRFYEQEGLLPPPGRSRGNFRLYGEEHVERLQFIRHCRSLDMLLSKVRTLLSYRKRPDQDCGEVNMLLDEHIRQVESRIGALLELKHHLVELREACSGARPAQSCGILQGLSDCVCDTRGTTAHPSD ?
Completion: 0.0655

Prompt: One more variant: MNIQIGELAKRTACPVVTIRFYEQEGLLPPPGRSRGNFRLYGEEHVERLQFIRHCRSLDMPLSDVRTLLSYRKRPDQDCGEVNMLLDEHIRQVESRIGALLELKHHLVELREACSGARPAQSCGILQGLSDCVCATRGTTAHASD
Completion: 0.0761

Prompt: Then what about the variant MNIQIGELAKRTACPVVTIRFYEQEGLLPPPGRSRGNFRLYGEEHVERLQFIRHCRSLDMPLSDVRTLLSYRKRPDQDCGEVTMLLDEHIRQVESRIGALLELKHHLVELREACSGARPAQSCGILQGLSDCVCVTRGTTAHASD ?
Completion: 0.0745
